Answer each item with its documented Met Kinase % Inhibition.
# Test system: MET
# TEST NAME: MET biochemical kinase assay
# Set-up: species or system human; concentration or dose not given beside the values
Dear colleague, please return just the value in %, with no unit written.

[ask] Endpoint output: Met Kinase % Inhibition of O=C1Nc2ccc(CCCl)cc2C1=Cc1ccc([N+](=O)[O-])c(O)c1 [10724/G04] . Value?
[reply] 71.0

[ask] Next: COc1cc(Br)cc(C=C2C(=O)Nc3ccc(S(=O)(=O)N4CCOCC4)cc32)c1O [10733/F08]
[reply] 66.6

[ask] Next: CSc1ccc(C=C2C(=O)Nc3ccc(I)cc32)s1 [10720/B07]
[reply] 61.5

[ask] Next: O=C1Nc2ccc(CCCl)cc2C1=Cc1ccc(O)c(O)c1 [10719/G03]
[reply] 87.6

[ask] Next: CNS(=O)(=O)c1ccc2c(c1)C(=Cc1c[nH]c3ccccc13)C(=O)N2 [10717/D06]
[reply] 33.8

[ask] Next: CCc1ccc(C=C2C(=O)Nc3ccc(S(=O)(=O)NC)cc32)o1 [10724/D10]
[reply] 59.6

[ask] Next: CNS(=O)(=O)c1ccc2c(c1)C(=Cc1cc(OC)c(OC)cc1OC)C(=O)N2 [10730/D03]
[reply] 34.2

[ask] Next: Cc1c(Br)ccc2c1C(=Cc1coc3ccc(Cl)cc3c1=O)C(=O)N2 [10730/C06]
[reply] 34.7

[ask] Next: Cc1cc(C=C2C(=O)Nc3ccc(S(=O)(=O)Nc4ccc(C(F)(F)F)cc4)cc32)cc(C)c1O [10722/E07]
[reply] 71.6

[ask] Next: N#Cc1ccc(C=C2C(=O)Nc3ccc(I)cc32)cc1 [10727/B09]
[reply] 81.9

[ask] Next: COc1cc(Br)c(O)c(C=C2C(=O)Nc3ccc(I)cc32)c1 [10718/B03]
[reply] 77.9

[ask] Next: COc1ccc2ccccc2c1C=C1C(=O)Nc2ccc(CCCl)cc21 [10729/G02]
[reply] 31.3

[ask] Next: CC(C)(C)c1cc(C=C2C(=O)Nc3ccc(I)cc32)cc(C(C)(C)C)c1OCc1ccccc1 [10733/B05]
[reply] 61.3

[ask] Next: Cc1cc(C=C2C(=O)Nc3ccc(I)cc32)oc1C [10730/B11]
[reply] 81.7

[ask] Next: O=C1Nc2ccccc2C1=C1C(=O)Nc2c(Br)cc(Br)cc21 [10726/A09]
[reply] 70.8

[ask] Next: CC(C)(C)c1cc(C=C2C(=O)Nc3ccc(S(=O)(=O)N4CCOCC4)cc32)ccc1O [10721/F09]
[reply] 52.5

[ask] Next: CC(C)(C)c1cc(C=C2C(=O)Nc3ccc(S(=O)(=O)N4CCOCC4)cc32)cc(I)c1OCc1ccccc1 [10733/F02]
[reply] 71.6

[ask] Next: COc1cc(C=C2C(=O)Nc3ccc(S(=O)(=O)N4CCOCC4)cc32)cc(OC)c1OC [10730/F04]
[reply] 36.0

---

# System: MET
# TEST NAME: MET biochemical kinase assay
# Design: species or system human; concentration or dose not given beside the values
Cut-off 50% on Met Kinase % Inhibition, inclusive. At or above means fulfilled; below means not fulfilled.

[ask] Would you say `COc1ccc(C=C2C(=O)Nc3c(Br)cc(Br)cc32)c(OC)c1` shows Met Kinase % Inhibition at minimum 50%?
[reply] not fulfilled

[ask] Next: `O=C1Nc2ccc(S(=O)(=O)Nc3ccc(C(F)(F)F)cc3)cc2C1=Cc1ccc(C(F)(F)F)cc1`
[reply] fulfilled

[ask] Next: `COc1ccc2[nH]cc(C=C3C(=O)Nc4ccc(I)cc43)c2c1`
[reply] not fulfilled

[ask] Next: `N#Cc1ccc(C=C2C(=O)Nc3c(Br)cc(Br)cc32)cc1`
[reply] not fulfilled

[ask] Next: `CCOc1ccccc1C=C1C(=O)Nc2ccc(S(=O)(=O)NC)cc21`
[reply] not fulfilled

[ask] Next: `O=C1Nc2ccc(I)cc2C1=Cc1ccc(Br)cc1`
[reply] fulfilled

[ask] Next: `COc1c(Br)cc(C=C2C(=O)Nc3ccc(I)cc32)cc1C(C)(C)C`
[reply] fulfilled

[ask] Next: `O=C1Nc2ccc(CCCl)cc2C1=Cc1ccc2ccccc2c1O`
[reply] fulfilled

---

Answer each item with its documented PDGF Kinase %Inhibition.
# ASSAY TARGET: PDGF-R (Homo sapiens)
# Sequence (P09619 33-1106, species assumed): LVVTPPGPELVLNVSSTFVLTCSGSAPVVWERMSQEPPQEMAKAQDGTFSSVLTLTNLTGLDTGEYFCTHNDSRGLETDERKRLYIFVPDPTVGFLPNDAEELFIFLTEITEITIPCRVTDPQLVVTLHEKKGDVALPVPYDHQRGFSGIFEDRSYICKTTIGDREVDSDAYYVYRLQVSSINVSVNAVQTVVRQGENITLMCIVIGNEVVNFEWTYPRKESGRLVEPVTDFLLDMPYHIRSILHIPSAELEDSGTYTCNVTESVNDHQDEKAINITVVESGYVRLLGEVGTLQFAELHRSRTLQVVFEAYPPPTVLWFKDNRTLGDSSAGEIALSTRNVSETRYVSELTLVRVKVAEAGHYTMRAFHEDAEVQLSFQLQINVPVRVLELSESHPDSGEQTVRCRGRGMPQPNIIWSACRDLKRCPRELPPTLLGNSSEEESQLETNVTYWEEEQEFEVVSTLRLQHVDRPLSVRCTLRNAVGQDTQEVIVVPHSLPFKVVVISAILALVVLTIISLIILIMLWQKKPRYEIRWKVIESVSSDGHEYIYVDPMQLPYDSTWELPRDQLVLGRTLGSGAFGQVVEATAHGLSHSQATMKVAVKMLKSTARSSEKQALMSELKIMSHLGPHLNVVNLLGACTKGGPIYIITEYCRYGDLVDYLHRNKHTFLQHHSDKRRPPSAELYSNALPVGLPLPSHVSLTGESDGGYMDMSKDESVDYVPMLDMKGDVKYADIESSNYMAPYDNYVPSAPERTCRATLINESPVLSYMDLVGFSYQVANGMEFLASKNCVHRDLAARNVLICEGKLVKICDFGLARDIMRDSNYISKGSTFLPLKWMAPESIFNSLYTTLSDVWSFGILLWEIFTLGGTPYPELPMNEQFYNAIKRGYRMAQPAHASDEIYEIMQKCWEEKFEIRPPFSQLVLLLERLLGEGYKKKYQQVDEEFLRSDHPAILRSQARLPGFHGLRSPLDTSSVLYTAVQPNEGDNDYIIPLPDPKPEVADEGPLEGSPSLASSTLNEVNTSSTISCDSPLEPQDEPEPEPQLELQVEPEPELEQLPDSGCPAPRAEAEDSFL
# TEST NAME: PDGF-R ELISA
# Format: cell-based
Dear colleague, please return just the value in %, with no unit written.

[ask] Endpoint output: PDGF Kinase %Inhibition of COc1ccc2[nH]cc(C=C3C(=O)Nc4ccc(S(=O)(=O)Nc5ccc(C(F)(F)F)cc5)cc43)c2c1 [10731/E09] . Value?
[reply] 23.2

[ask] Next: Cc1csc2sc(C=C3C(=O)Nc4ccc(I)cc43)c(C)c12 [10724/B11]
[reply] 23.0

[ask] Next: O=C1Nc2ccc(S(=O)(=O)Nc3ccc(C(F)(F)F)cc3)cc2C1=Cc1ccc(C(=O)O)cc1 [10722/E05]
[reply] 19.2

[ask] Next: CNS(=O)(=O)c1ccc2c(c1)C(=Cc1ccc(OC)c(C(C)(C)C)c1)C(=O)N2 [10732/D05]
[reply] 4.3

[ask] Next: COc1cccc(C=C2C(=O)Nc3ccc(S(=O)(=O)N4CCOCC4)cc32)c1O [10723/F03]
[reply] 1.3

[ask] Next: Cc1cc(C=C2C(=O)Nc3c(Br)cc(Br)cc32)cc(C(C)(C)C)c1O [10726/A04]
[reply] 44.2

[ask] Next: CC(C)(C)c1cc(C=C2C(=O)Nc3ccc(I)cc32)ccc1OCc1ccccc1 [10732/B06]
[reply] -12.4

[ask] Next: O=C1Nc2ccc(S(=O)(=O)N3CCOCC3)cc2C1=Cc1cc(Br)cc(Br)c1O [10734/F07]
[reply] -5.1

---

# ASSAY TARGET: EGFR (Homo sapiens, UniProt P00533)
# Construct: Add 7 ug A431 cell lysate per well (EGFR source); endogenous in cells; host or cells: A431
# Sequence (P00533 25-1210): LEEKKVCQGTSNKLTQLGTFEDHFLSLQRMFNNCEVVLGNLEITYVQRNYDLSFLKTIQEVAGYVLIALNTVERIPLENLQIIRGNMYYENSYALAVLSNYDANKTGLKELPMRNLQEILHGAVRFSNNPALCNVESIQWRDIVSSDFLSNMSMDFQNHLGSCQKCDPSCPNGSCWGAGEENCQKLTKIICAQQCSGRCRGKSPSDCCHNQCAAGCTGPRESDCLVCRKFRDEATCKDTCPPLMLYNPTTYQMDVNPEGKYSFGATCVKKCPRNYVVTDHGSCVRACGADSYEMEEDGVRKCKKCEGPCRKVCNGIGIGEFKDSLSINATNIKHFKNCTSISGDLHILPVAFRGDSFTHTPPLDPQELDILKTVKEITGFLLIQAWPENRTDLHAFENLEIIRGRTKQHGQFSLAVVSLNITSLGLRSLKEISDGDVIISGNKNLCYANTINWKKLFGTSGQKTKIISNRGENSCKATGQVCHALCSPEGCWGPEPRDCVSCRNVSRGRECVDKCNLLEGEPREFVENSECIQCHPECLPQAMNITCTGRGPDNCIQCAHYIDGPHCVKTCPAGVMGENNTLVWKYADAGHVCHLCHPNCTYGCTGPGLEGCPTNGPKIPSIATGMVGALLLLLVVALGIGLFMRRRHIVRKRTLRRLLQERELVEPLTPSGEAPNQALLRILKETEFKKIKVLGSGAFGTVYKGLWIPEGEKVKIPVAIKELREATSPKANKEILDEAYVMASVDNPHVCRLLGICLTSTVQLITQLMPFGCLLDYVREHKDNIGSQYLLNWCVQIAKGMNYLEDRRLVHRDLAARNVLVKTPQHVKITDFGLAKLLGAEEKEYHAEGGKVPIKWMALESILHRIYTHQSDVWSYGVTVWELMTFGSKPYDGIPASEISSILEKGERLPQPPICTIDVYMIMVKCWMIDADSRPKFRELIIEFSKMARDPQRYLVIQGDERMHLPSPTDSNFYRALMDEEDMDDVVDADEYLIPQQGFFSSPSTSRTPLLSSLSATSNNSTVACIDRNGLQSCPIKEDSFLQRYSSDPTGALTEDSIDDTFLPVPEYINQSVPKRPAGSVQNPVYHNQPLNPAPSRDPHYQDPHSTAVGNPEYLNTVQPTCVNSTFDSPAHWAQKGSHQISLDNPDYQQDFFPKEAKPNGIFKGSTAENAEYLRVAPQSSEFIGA
# TEST NAME: EGFR ELISA assay (in vitro kinase activity, EGFR captured from A431 cell lysate)
# Assay type: biochemical
# Design: concentration or dose not given beside the values
Answer each item with its documented Biochem EGFR %Inhibition.
Dear colleague, please return just the value in %, with no unit written.

[ask] Endpoint output: Biochem EGFR %Inhibition of O=C1Nc2c(Br)cc(Br)cc2C1=Cc1cccc(Oc2ccccc2)c1 [10729/A06] . Value?
[reply] 36.5

[ask] Next: Cc1ccc2occ(C=C3C(=O)Nc4ccc(S(=O)(=O)N5CCOCC5)cc43)c(=O)c2c1 [10731/F06]
[reply] 7.2

[ask] Next: O=C1Nc2ccc(F)cc2C1=C1C(=O)Nc2c(Br)cc(Br)cc21 [10726/A08]
[reply] -28.4

[ask] Next: Cc1cc(C=C2C(=O)Nc3ccc(CCCl)cc32)[nH]n1 [10725/G05]
[reply] 68.7

[ask] Next: O=C1Nc2c(Br)cc(Br)cc2C1=Cc1ncc[nH]1 [10720/A11]
[reply] -23.2

[ask] Next: CNS(=O)(=O)c1ccc2c(c1)C(=Cc1ccc(OC)c(OC)c1OC)C(=O)N2 [10730/D02]
[reply] 18.6

[ask] Next: Cc1cc(C=C2C(=O)Nc3c(Br)cc(Br)cc32)[nH]n1 [10725/A05]
[reply] 7.9

[ask] Next: CNS(=O)(=O)c1ccc2c(c1)C(=Cc1ccccc1Br)C(=O)N2 [10723/D07]
[reply] 13.4

[ask] Next: CC(C)(C)c1cc(C=C2C(=O)Nc3c(Br)cc(Br)cc32)cc(Br)c1O [10721/A10]
[reply] 31.1

[ask] Next: O=C1Nc2ccc(CCCl)cc2C1=Cc1cc2c3c(c1O)CCCN3CCC2 [10724/G05]
[reply] -20.8

[ask] Next: CSc1ccc(C=C2C(=O)Nc3ccc(I)cc32)s1 [10720/B07]
[reply] 52.0

[ask] Next: O=C1Nc2ccc(CCCl)cc2C1=Cc1cccc(Oc2ccccc2)c1 [10729/G06]
[reply] 15.2

[ask] Next: CNS(=O)(=O)c1ccc2c(c1)C(=Cc1c(OC)cccc1OC)C(=O)N2 [10728/D03]
[reply] 10.8

[ask] Next: CCOC(=O)c1[nH]c(C=C2C(=O)Nc3ccc(S(=O)(=O)N4CCOCC4)cc32)c(C(=O)OC)c1C [10726/F03]
[reply] -17.4

[ask] Next: CC(C)(C)c1cc(C=C2C(=O)Nc3ccc(S(=O)(=O)N4CCOCC4)cc32)cc(C(C)(C)C)c1O [10721/F11]
[reply] 95.9

[ask] Next: O=C1Nc2ccc(I)cc2C1=Cc1ccc(O)c(O)c1 [10719/B03]
[reply] 59.5

[ask] Next: Cc1ccc(C=C2C(=O)Nc3ccc(CCCl)cc32)o1 [10725/G04]
[reply] -12.3

[ask] Next: O=C1Nc2c(Br)cc(Br)cc2C1=Cc1c[nH]c2ccccc12 [10717/A06]
[reply] -7.8

[ask] Next: Cc1c(Br)ccc2c1C(=Cc1ccc(-c3ccccc3Cl)o1)C(=O)N2 [10730/C07]
[reply] 20.3
